MEASUREMENT TARGET: HCV NS3 helicase (Hepatitis C virus genotype 1b, UniProt P26663)
Construct: full-length NS3 (1-631), purified at Array BioPharma
Sequence (P26663 1027-1657): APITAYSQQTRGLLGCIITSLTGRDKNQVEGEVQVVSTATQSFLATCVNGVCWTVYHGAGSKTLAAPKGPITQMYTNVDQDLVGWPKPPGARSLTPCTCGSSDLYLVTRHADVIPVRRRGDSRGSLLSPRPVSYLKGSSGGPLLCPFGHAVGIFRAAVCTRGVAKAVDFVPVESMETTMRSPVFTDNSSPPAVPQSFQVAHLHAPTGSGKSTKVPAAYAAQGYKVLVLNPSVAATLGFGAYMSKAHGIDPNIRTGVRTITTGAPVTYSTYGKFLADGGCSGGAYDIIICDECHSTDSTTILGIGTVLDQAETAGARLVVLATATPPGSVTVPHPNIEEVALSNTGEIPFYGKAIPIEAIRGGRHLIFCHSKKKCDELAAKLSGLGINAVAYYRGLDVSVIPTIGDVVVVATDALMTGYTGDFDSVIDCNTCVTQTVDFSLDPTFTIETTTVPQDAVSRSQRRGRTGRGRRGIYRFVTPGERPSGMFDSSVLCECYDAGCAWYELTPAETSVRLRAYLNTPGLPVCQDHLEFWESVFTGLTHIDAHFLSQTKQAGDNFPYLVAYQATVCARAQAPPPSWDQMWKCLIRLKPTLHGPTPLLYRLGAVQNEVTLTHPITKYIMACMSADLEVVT
MEASUREMENT DESCRIPTION: HCV Helicase Prompt FRET Assay (Example A)
Assay type: biochemical
TEST CONTEXT: Table 23, compounds made using Scheme 30; read-out: IC50 Activity
Method: Test compounds were diluted to 2.5 mM by adding 6 uL of a 10 mM solution of the compound to 18 uL of DMSO in a 384-well Costar polypropylene plate. Serial dilutions (2.5×) were performed in the plate using DMSO as the diluent. 1 ul of solution was transferred from each well to a new 384-well Costar polypropylene plate. […] The ATP solution was prepared in MilliQ water, pH adjusted to approximately 7 with NaOH. […] The concentration was determined via A260 (ext. coeff=15,400 M^−1cm^−1). […]
OBSERVABLE: IC50

| GIVEN SMILES | IC50 |
| --- | --- |
| O=C(O)Cc1cn(Cc2cccc(Oc3cc(Cl)ccc3Cl)c2)c2ccccc12 | 10 to 50 µM |
| O=C(O)Cc1cn(Cc2ccc(Oc3ccc(C(F)(F)F)cc3C(F)(F)F)cc2)c2ccccc12 | < 10 µM |
| O=C(O)Cc1cn(Cc2ccc(Oc3c(C(F)(F)F)cccc3C(F)(F)F)cc2)c2ccccc12 | 10 to 50 µM |

Answer with reported IC50 of O=C(O)Cc1cn(Cc2cccc(Oc3c(Cl)cccc3Cl)c2)c2ccccc12 10 to 50 µM

Answer with reported IC50 of O=C(O)Cc1cn(Cc2cccc(Oc3ccc(Cl)cc3Cl)c2)c2ccccc12 < 10 µM

Answer with reported IC50 of O=C(O)Cc1cn(Cc2cccc(Oc3c(F)cccc3F)c2)c2ccccc12 < 10 µM

Answer with reported IC50 of O=C(O)Cc1cn(Cc2cccc(Oc3ccc(C(F)(F)F)cc3C(F)(F)F)c2)c2ccccc12 < 10 µM

Answer with reported IC50 of O=C(O)Cc1cn(Cc2cccc(Oc3cccc(Cl)c3Cl)c2)c2ccccc12 < 10 µM

Answer with reported IC50 of O=C(O)Cc1cn(Cc2cccc(Oc3ccc(F)cc3F)c2)c2ccccc12 < 10 µM

---

As shown below, each of these molecules has a reported IC50 value.
MEASUREMENT TARGET: HCV NS3 helicase (Hepatitis C virus genotype 1b)
Construct: full-length NS3 (1-631), purified at Array BioPharma
MEASUREMENT DESCRIPTION: HCV Helicase Prompt FRET Assay (Example A)
Type: biochemical
TEST CONTEXT: HCV NS3 helicase; tables do not say whether Example A or Example B assay; read-out: IC50 Activity

Worked examples, 5 molecules total:
| MOLECULE | IC50 |
| --- | --- |
| O=C(O)Cc1c(Cc2ccc(-c3ccc(Cl)c(Cl)c3)cc2)[nH]c2ccccc12 | < 10 µM |
| CCOC(=O)C(F)(F)c1cn(-c2ccc([N+](=O)[O-])cc2C)c2ccc(Br)cc12 | 10 to 50 µM |
| CC(C)c1ccc(Cn2cc(C(NC(=O)OC(C)(C)C)C(=O)O)c3ccccc32)cc1 (centres unmarked) | 10 to 50 µM |
| CSc1cccc(-c2ccc(-n3cc(CC(=O)O)c4ccccc43)cc2)c1 | < 10 µM |
| Cc1ccc2sc(-n3cc(CC(=O)O)c4ccccc43)cc2c1 | < 10 µM |

Answer with reported IC50 of O=C(O)Cc1cn(Cc2cccc(Oc3cccc(Cl)c3)c2)c2ccccc12 < 10 µM

Answer with reported IC50 of CN(c1cccc(Cn2cc(CC(=O)O)c3ccccc32)c1)c1c(F)cccc1F 10 to 50 µM

Answer with reported IC50 of COc1ccc(-c2cccc(C(=O)c3[nH]c4ccccc4c3CC(=O)O)c2)cc1 10 to 50 µM

Answer with reported IC50 of COc1ccccc1Oc1ccc(Cn2cc(CC(=O)O)c3ccccc32)cc1 < 10 µM

Answer with reported IC50 of COc1cccc(Oc2cccc(Cn3cc(CC(=O)O)c4ccccc43)c2)c1 10 to 50 µM

Answer with reported IC50 of COc1ccc(OC)c(N(C)c2cccc(Cn3cc(CC(=O)O)c4ccccc43)c2)c1 < 10 µM
